- Test system: Salmonella typhimurium
- assay.protocol: Genotoxicity against Salmonella typhimurium TA1535/pSK1002 assessed as growth factor ratio at 1.25 mg/ml by umuC assay in absence of S9 fraction
- Assay type: toxicity, organism-based
- test.context: salmonella enterica subsp. enterica serovar typhimurium
Listed next: entries and their corresponding Ratio.
Just the number, please, no unit after it.

Recorded Ratio, per entry:
record_smiles=CN(C)c1ccc(/C=N/NC(=O)CSc2nnnn2C)cc1 tested_on="Salmonella typhimurium" data_value=1.191
record_smiles=Cn1nnnc1SCC(=O)N/N=C/c1ccccc1[N+](=O)[O-] tested_on="Salmonella typhimurium" data_value=1.022
record_smiles=COc1ccc(/C=N/NC(=O)CSc2nnnn2C)cc1 tested_on="Salmonella typhimurium" data_value=1.137
record_smiles=Cn1nnnc1SCC(=O)N/N=C/c1ccccc1F tested_on="Salmonella typhimurium" data_value=1.084

Input line: Notebook entry, Salmonella typhimurium assay: Ratio of Cn1nnnc1SCC(=O)N/N=C/c1ccc(O)cc1 = ?
Output line: 1.098

###

- Tested on: Salmonella typhimurium
- assay.protocol: Genotoxicity against Salmonella typhimurium TA100 assessed as fold increase in revertants at 0.625 mg/ml after 90 mins by Ames MPF test in absence of S9 fraction relative to baseline
- Type: toxicity, organism-based
- test.context: salmonella enterica subsp. enterica serovar typhimurium, 1.5 h
test.readout: fold change (FC)

record_smiles=CN(C)c1ccc(/C=N/NC(=O)CSc2nnnn2C)cc1 data_value=1.38
record_smiles=Cn1nnnc1SCC(=O)N/N=C/c1ccccc1[N+](=O)[O-] data_value=0.83
record_smiles=Cn1nnnc1SCC(=O)N/N=C/c1ccccc1F data_value=0.23
record_smiles=COc1ccc(/C=N/NC(=O)CSc2nnnn2C)cc1 data_value=0.3

The record that follows has no fold change (FC) shown yet.
Input line: Item: Cn1nnnc1SCC(=O)N/N=C/c1ccc(O)cc1 Test system: Salmonella typhimurium Read-out: fold change (FC) Value: ?
Output line: 0.66

###

- Tested on: Salmonella typhimurium
- assay.protocol: Genotoxicity against Salmonella typhimurium TA1535/pSK1002 assessed as growth factor ratio at 5 mg/ml by umuC assay in presence of S9 fraction
- Type: toxicity, organism-based
- test.context: salmonella enterica subsp. enterica serovar typhimurium
Please assign Condition not met whenever Ratio is at or above 2, and Condition met whenever it is below.

Input line: Field: below-cutoff. Rule: recorded Ratio strictly less than 2. Subject: Cn1nnnc1SCC(=O)N/N=C/c1ccccc1[N+](=O)[O-]
Output line: Condition met

Input line: Is 2 strictly greater than the compound's reported Ratio? compound: COc1ccc(/C=N/NC(=O)CSc2nnnn2C)cc1
Output line: Condition not met

Input line: Field: below-cutoff. Rule: recorded Ratio strictly less than 2. Subject: Cn1nnnc1SCC(=O)N/N=C/c1ccc(O)cc1
Output line: Condition not met

Input line: Item Cn1nnnc1SCC(=O)N/N=C/c1ccccc1F : Ratio beneath 2, strictly?
Output line: Condition not met

Input line: Please determine if CN(C)c1ccc(/C=N/NC(=O)CSc2nnnn2C)cc1 is below 2 in terms of Ratio.
Output line: Condition not met

###

- assay.protocol: Genotoxicity against Salmonella typhimurium TA1535/pSK1002 assessed as induction ratio at 0.63 mg/ml by umuC assay in presence of S9 fraction
- Assay type: toxicity, organism-based
- test.context: salmonella enterica subsp. enterica serovar typhimurium, Salmonella typhimurium TA1535/pSK1002 with S9 fraction
Listing of entries alongside the reported fold induction at 0.63 mg/ml.
Keep it simple and answer with nothing but the number.

record_smiles=Cn1nnnc1SCC(=O)N/N=C/c1ccc(O)cc1 data_value=0.797
record_smiles=COc1ccc(/C=N/NC(=O)CSc2nnnn2C)cc1 data_value=0.814
record_smiles=Cn1nnnc1SCC(=O)N/N=C/c1ccccc1[N+](=O)[O-] data_value=1.23
record_smiles=Cn1nnnc1SCC(=O)N/N=C/c1ccccc1F data_value=0.936

Kindly consider the entry below.
Input line: Quick check: fold induction at 0.63 mg/ml of CN(C)c1ccc(/C=N/NC(=O)CSc2nnnn2C)cc1 ?
Output line: 0.704

###

Items are presented alongside their recorded fold change (FC).
- Test system: Salmonella typhimurium
- assay.protocol: Genotoxicity against Salmonella typhimurium TA98 assessed as fold increase in revertants at 0.3125 mg/ml after 90 mins by Ames MPF test in absence of S9 fraction relative to baseline
- Assay type: toxicity, organism-based
- test.context: salmonella enterica subsp. enterica serovar typhimurium, 1.5 h
Just the number, please, no unit attached.

Use these answered entries as a reference point.
record_smiles=Cn1nnnc1SCC(=O)N/N=C/c1ccccc1[N+](=O)[O-] data_value=1.63
record_smiles=COc1ccc(/C=N/NC(=O)CSc2nnnn2C)cc1 data_value=0.16
record_smiles=CN(C)c1ccc(/C=N/NC(=O)CSc2nnnn2C)cc1 data_value=1.27
record_smiles=Cn1nnnc1SCC(=O)N/N=C/c1ccccc1F data_value=1.59

// next entry
Input line: Quick check: fold change (FC) of Cn1nnnc1SCC(=O)N/N=C/c1ccc(O)cc1 ?
Output line: 0.13

###

Reported fold induction at 2.5 mg/ml values for a set of compounds
- assay.protocol: Genotoxicity against Salmonella typhimurium TA1535/pSK1002 assessed as induction ratio at 2.5 mg/ml by umuC assay in absence of S9 fraction
- Assay type: toxicity, organism-based
- test.context: salmonella enterica subsp. enterica serovar typhimurium, Salmonella typhimurium TA1535/pSK1002 without S9 fraction
Answer with a bare number; do not write a unit.

record_smiles=Cn1nnnc1SCC(=O)N/N=C/c1ccccc1[N+](=O)[O-] data_value=1.63

Input line: Suppose we examine the compound Cn1nnnc1SCC(=O)N/N=C/c1ccccc1F ; what fold induction at 2.5 mg/ml value has been reported?
Output line: 0.779

Input line: GET /values?readout=fold induction at 2.5 mg/ml&item= CN(C)c1ccc(/C=N/NC(=O)CSc2nnnn2C)cc1
Output line: 0.88

Input line: Tell me the measured fold induction at 2.5 mg/ml of COc1ccc(/C=N/NC(=O)CSc2nnnn2C)cc1 , please.
Output line: 1.04

Input line: # lookup: fold induction at 2.5 mg/ml of Cn1nnnc1SCC(=O)N/N=C/c1ccc(O)cc1
Output line: 0.979

###

- System: Nakaseomyces glabratus
- assay.protocol: Antifungal activity against Candida glabrata Anadolu University clinical isolate after 24 hrs by microdilution susceptibility assay
- Type: functional
test.readout: MIC

Consider the worked cases shown below.
molecule=Cn1nnnc1SCC(=O)N/N=C/c1c(Cl)cccc1Cl data_value="> 8000 µg/mL"
molecule=Cn1nnnc1SCC(=O)N/N=C/c1ccccc1O data_value="> 8000 µg/mL"
molecule=Cc1cccc(/C=N/NC(=O)CSc2nnnn2C)c1 data_value="> 8000 µg/mL"
molecule=COc1ccccc1/C=N/NC(=O)CSc1nnnn1C data_value="> 8000 µg/mL"
molecule=Cn1nnnc1SCC(=O)N/N=C/c1ccc([N+](=O)[O-])cc1 data_value="> 8000 µg/mL"
molecule=Cn1nnnc1SCC(=O)N/N=C/c1ccc(O)cc1 data_value="500 µg/mL"
molecule=Cn1nnnc1SCC(=O)N/N=C/c1cccc(Cl)c1Cl data_value="> 8000 µg/mL"
molecule=Cn1nnnc1SCC(=O)N/N=C/c1ccccc1 data_value="> 8000 µg/mL"
molecule=C/C(=N\NC(=O)CSc1nnnn1C)c1ccccc1Cl data_value="> 8000 µg/mL"
molecule=Cn1nnnc1SCC(=O)N/N=C/c1ccc(F)cc1 data_value="> 8000 µg/mL"

Input line: Reported MIC for CC(=O)N1CCN(c2ccc(OCC3COC(Cn4ccnc4)(c4ccc(Cl)cc4Cl)O3)cc2)CC1 (configuration not stated) : what is it?
Output line: 1 µg/mL

Input line: # MIC lookup, item Cc1ccccc1/C=N/NC(=O)CSc1nnnn1C
Output line: > 8000 µg/mL

###

- Tested on: Salmonella typhimurium
- assay.protocol: Genotoxicity against Salmonella typhimurium TA98 assessed as fold increase in revertants at 0.156 mg/ml after 90 mins by Ames MPF test in absence of S9 fraction relative to baseline
- Format: toxicity, organism-based
- test.context: salmonella enterica subsp. enterica serovar typhimurium, 1.5 h
Everything with fold change (FC) lower than 0.5 is no (0); everything else, including exactly 0.5, is yes (1).

record_smiles=COc1ccc(/C=N/NC(=O)CSc2nnnn2C)cc1 label_value="no (0)"
record_smiles=Cn1nnnc1SCC(=O)N/N=C/c1ccccc1F label_value="yes (1)"
record_smiles=Cn1nnnc1SCC(=O)N/N=C/c1ccc(O)cc1 label_value="yes (1)"
record_smiles=CN(C)c1ccc(/C=N/NC(=O)CSc2nnnn2C)cc1 label_value="no (0)"

Now for another entry.
Input line: Does the compound Cn1nnnc1SCC(=O)N/N=C/c1ccccc1[N+](=O)[O-] have recorded fold change (FC) that is 0.5 or more?
Output line: yes (1)

###

- Test system: Salmonella typhimurium
- assay.protocol: Genotoxicity against Salmonella typhimurium TA100 assessed as fold increase in revertants at 0.3125 mg/ml after 90 mins by Ames MPF test in absence of S9 fraction relative to baseline
- Assay type: toxicity, organism-based
- test.context: salmonella enterica subsp. enterica serovar typhimurium, 1.5 h
Threshold-based label: fold change (FC) under 1 gives label 1, fold change (FC) not under 1 gives label 0.

Input line: Consider COc1ccc(/C=N/NC(=O)CSc2nnnn2C)cc1 . Does its fold change (FC) lie strictly below 1?
Output line: label 1
